- TESTED ON: T1, P4bH1
- T1 chain: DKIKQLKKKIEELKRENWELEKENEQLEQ
- ASSAY TEXT: two-hybrid library CCNG1;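 also: natural log of median RNA to DNA barcode read ratio; higher means stronger binding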
Lab note: anything with interaction score at or over -0.3 counts as 1.0; the rest go in 0.0.

- BINDER: "DKIKQLKKKIEELKRENWELEKENEQLEQ [P4bH1]"
  CLASS ASSIGNMENT: 0.0
- BINDER: "DKNKQLKKENEELERKIWELKKKIEQLKQ [P10bH1]"
  CLASS ASSIGNMENT: 0.0
- BINDER: "DKIEELKEKNSQLKEKNEELKQKIYELKE [P2mSN]"
  CLASS ASSIGNMENT: 0.0
- BINDER: "DENKQLEKEIEELEREIWELEKKNEQLKQ [P11bH1]"
  CLASS ASSIGNMENT: 1.0
- BINDER: "DEIKQLEKEIEELERKNWELKKKNEQLKQ [P3bH1]"
  CLASS ASSIGNMENT: 1.0
- BINDER: "DKNKQLKKKIEELKRKIWELKKENEQLEQ [P12bH1]"
  CLASS ASSIGNMENT: 0.0
- BINDER: "DEIQQLEQKNQELKQKIQELKWENQELEQ [4H491-bN]"
  CLASS ASSIGNMENT: 0.0
- BINDER: "DEIKQLEKENEELERENWELEKEIEQLEQ [P1bH1]"
  CLASS ASSIGNMENT: 0.0
- BINDER: "DKIKQLKKKNEELKRKNWELKKKIEQLKQ [P2bH1]"
  CLASS ASSIGNMENT: 1.0

The origin of these recorded values is paper PMC10397247.
